# maps each entry to its activity, negative = inhibition
assayRemarks: Stat Signaling Pathway (AID 446);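 also: ME-180 cervical cancer cells given 40 pM IL-6 alongside compound; SIE-controlled beta-lactamase reporter measured as 460/530 nm FRET emission ratio; % is scaled to controls: 0 for no effect and ±100 for the full control effect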
conditionsUsed: ME-180 (cervical carcinoma) SIE beta-lactamase reporter, IL-6 stimulated, 5 h; at 38 µM (top of the series)
Results filed as inconclusive are left out.

{"chemSmiles": "Cc1cccc(C)c1OC[C@H](C)N", "activity, negative = inhibition / %": -14.2}
{"chemSmiles": "CCN(CC)CCC[C@H](C)Nc1ccnc2cc(Cl)ccc12", "activity, negative = inhibition / %": 15.2}
{"chemSmiles": "C[C@@H](CCc1ccccc1)NC[C@H](O)c1ccc(O)c(C(N)=O)c1", "activity, negative = inhibition / %": 4.03}
{"chemSmiles": "CO[C@]1(NC(=O)CSCC#N)C(=O)N2C(C(=O)O)=C(CSc3nnnn3C)CS[C@H]21", "activity, negative = inhibition / %": 0.96}
{"chemSmiles": "CN(C)[C@@H]1C(=O)C(C(N)=O)=C(O)[C@]2(O)C(=O)C3=C(O)c4c(O)ccc(Cl)c4[C@H](O)[C@H]3C[C@@H]12", "activity, negative = inhibition / %": 3.61}
{"chemSmiles": "CC(=O)[C@@H]1CC[C@@H]2[C@@H]3CCC4=CC(=O)CC[C@@]4(C)[C@H]3CC[C@]21C", "activity, negative = inhibition / %": 9.04}

====

measuredTarget: Cytochrome P450 1A2 (Homo sapiens)
assayRemarks: p450-cyp1a2 (AID 410)
conditionsUsed: recombinant CYP1A2, luciferin-ME demethylation, luminescence; series mostly up to 57 µM
Experimental: The P450 gene superfamily is involved in metabolism and the clearance of xenobiotics. This assay used human CYP1A2 to measure the demethylation of luciferin 6' methyl ether (Luciferin-ME; Promega-Glo) to luciferin. The luciferin is then measured by luminescence after the addition of a luciferase detection regeant. Luciferin-ME concentration in the assay was equal to its Km for CYP1A2. NCGC Assay Protocol Summary: […]
Inconclusive results are not listed. Active and inactive are the calls of the source. Calls follow the shape of the full dose curve.
Labels: Yes for active, No for inactive

{"chemSmiles": "COCCn1c(=O)c(-c2cccc(C#N)c2)nc2cnc(Oc3ccc(OC)cc3)nc21", "classLabel": "Yes"}
{"chemSmiles": "O=C(c1cnccn1)N1CCC2(CCCN(c3cccc(-c4ccccc4)c3)C2)CC1", "classLabel": "Yes"}
{"chemSmiles": "Cc1ccccc1-c1cncnc1N1CCN(C)CC1", "classLabel": "Yes"}
{"chemSmiles": "O=c1c(-c2ccccc2)nc2cncnc2n1C1CC1", "classLabel": "Yes"}
{"chemSmiles": "COc1ccc(-c2nc3cnc(OC)nc3n(CCc3ccccc3)c2=O)cc1", "classLabel": "Yes"}
{"chemSmiles": "COc1cccc(-c2cc(NCc3ccccc3)ncn2)c1", "classLabel": "Yes"}
{"chemSmiles": "CN1CCN(c2ncc3ncc(=O)n(Cc4ccc(F)cc4)c3n2)CC1", "classLabel": "Yes"}
{"chemSmiles": "N#Cc1ccccc1-c1ccc2ncnc(NC3CC3)c2c1", "classLabel": "Yes"}
{"chemSmiles": "COCCNc1nc(-c2cccc(NS(C)(=O)=O)c2)nc2ccccc12", "classLabel": "Yes"}
{"chemSmiles": "CN(Cc1cnc2nc(N)nc(N)c2n1)c1ccc(C(=O)N[C@H](CCC(=O)O)C(=O)O)cc1", "classLabel": "No"}
{"chemSmiles": "COCC(=O)N1CCC2(CC1)CN(C(=O)Nc1ccccc1)C2", "classLabel": "Yes"}
{"chemSmiles": "COc1ncc2nc(-c3ccc(F)cc3)c(=O)n(CCc3ccccc3)c2n1", "classLabel": "Yes"}
{"chemSmiles": "COc1ccc(-n2c(=O)c(C)nc3cncnc32)cc1", "classLabel": "No"}
{"chemSmiles": "N#Cc1cccc(-c2nccc(NCc3cccs3)n2)c1", "classLabel": "Yes"}
{"chemSmiles": "CNc1cc(-c2ccccc2C)ncn1", "classLabel": "Yes"}
{"chemSmiles": "COc1ccc(-n2c(=O)c(-c3ccc(Cl)cc3)nc3cnc(N(C)C)nc32)cc1", "classLabel": "Yes"}
{"chemSmiles": "CN(C)c1ncc2nc(-c3ccc(F)cc3)c(=O)n(CCc3ccccc3)c2n1", "classLabel": "Yes"}
{"chemSmiles": "COc1ccc(-c2nc3cnc(N(C)C)nc3n(C[C@H]3CCCO3)c2=O)cc1", "classLabel": "Yes"}
{"chemSmiles": "CS(=O)(=O)Nc1cccc(-c2cc(NCc3ccccc3)ncn2)c1", "classLabel": "Yes"}
{"chemSmiles": "COc1ccc(Oc2ncc3ncc(=O)n(C4CC4)c3n2)cc1", "classLabel": "Yes"}
{"chemSmiles": "COCCn1c(=O)c(-c2cn(C)c3ccccc23)nc2cnc(OCc3ccccc3)nc21", "classLabel": "Yes"}
{"chemSmiles": "O=C(c1csnn1)N1CCC[C@@]2(CCN(c3ccncc3)C2)C1", "classLabel": "No"}
{"chemSmiles": "COc1ccc(CNc2ncncc2-c2ccc(N(C)C)cc2)c(OC)c1", "classLabel": "Yes"}
{"chemSmiles": "CC[C@]1(C)CC(=O)NC1=O", "classLabel": "No"}
{"chemSmiles": "Cn1cc(-c2nc3cnc(N4CCNCC4)nc3n(-c3ccccc3)c2=O)c2ccccc21", "classLabel": "Yes"}
{"chemSmiles": "O=S(=O)(c1ccccc1)N1CCC[C@@]2(CCN(Cc3cc(C(F)(F)F)cc(C(F)(F)F)c3)C2)C1", "classLabel": "No"}
{"chemSmiles": "O=S(=O)(c1ccccc1)N1CCC2(CCN(Cc3nccs3)CC2)CC1", "classLabel": "No"}
{"chemSmiles": "COc1ccccc1CN1CCC2(CC1)CCN(C(=O)c1c(C)noc1C)CC2", "classLabel": "No"}
{"chemSmiles": "Clc1ccccc1-c1nccc(NCc2ccccc2)n1", "classLabel": "Yes"}
{"chemSmiles": "COc1ccccc1CNc1ncnc2ccc(-c3ccc4c(c3)OCO4)cc12", "classLabel": "Yes"}
{"chemSmiles": "c1ncc(-c2ccc3c(c2)OCO3)c(NCCc2cnc[nH]2)n1", "classLabel": "Yes"}
{"chemSmiles": "O=C(c1cnccn1)N1CCC2(CCCN(c3ncccn3)C2)CC1", "classLabel": "No"}
{"chemSmiles": "O=C(Nc1cccc(F)c1)N1CCC2(CC1)CCN(C(=O)c1ccco1)CC2", "classLabel": "No"}
{"chemSmiles": "c1ccc(Nc2ncncc2-c2ccc3c(c2)OCO3)cc1", "classLabel": "Yes"}
{"chemSmiles": "CN(C)c1ccc(-c2cncnc2Nc2ccc(F)cc2)cc1", "classLabel": "Yes"}
{"chemSmiles": "COc1ccc2[nH]cc(CCNc3ncnc4ccc(-c5ccccc5CN(C)C)cc34)c2c1", "classLabel": "Yes"}
{"chemSmiles": "COc1ccc(CNc2ccnc(-c3ccccc3CN(C)C)n2)c(OC)c1", "classLabel": "Yes"}
{"chemSmiles": "COc1ccccc1CCn1c(=O)c(CCc2ccccc2)nc2cncnc21", "classLabel": "Yes"}
{"chemSmiles": "COc1ccc(C(=O)N2CCC3(CCN(Cc4cc(C(F)(F)F)cc(C(F)(F)F)c4)CC3)CC2)cc1", "classLabel": "No"}
{"chemSmiles": "CN(C)c1ccc(-c2nc(N(C)C)c3ccccc3n2)cc1", "classLabel": "Yes"}
{"chemSmiles": "O=C(c1csnn1)N1CCC2(CCN(Cc3nccs3)CC2)CC1", "classLabel": "No"}
{"chemSmiles": "FC(F)(F)c1ccccc1-c1nccc(NCc2ccccc2)n1", "classLabel": "Yes"}
{"chemSmiles": "COc1cccc(Cn2c(=O)c(-c3cn(C)c4ccccc34)nc3cnc(OC)nc32)c1", "classLabel": "Yes"}
{"chemSmiles": "O=C(c1ccco1)N1CCC2(CC1)CCN(c1ccc(-c3ccccc3)cc1)CC2", "classLabel": "No"}
{"chemSmiles": "Cn1c(=O)c(-c2cc(F)cc(F)c2)nc2cncnc21", "classLabel": "Yes"}

====

assayRemarks: NFAT Signaling Pathway (AID 444);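 also: carbachol stimulus at about its EC50 of 1 µM final; % is scaled to controls: 0 for no effect and ±100 for the full control effect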
conditionsUsed: Jurkat NFAT-bla M1, carbachol, beta-lactamase ratio, 5 h; at 7.69 µM (top of the series) unless noted
Results filed as inconclusive are left out. Active and inactive are the calls of the source. Calls follow the shape of the dose curve; as a rule, active = well fitted curve in either direction with a large enough effect (not every such curve was filed as active); inconclusive = small, poorly fitted or top-dose-only effect, or another doubt; inactive = flat fitted curve, though single readings scatter.

{"chemSmiles": "Cn1c(=O)c(-c2ccccc2)nc2cnc(OCc3ccccc3)nc21", "activity change, negative = inhibition": "4.72% (inactive)"}
{"chemSmiles": "COc1ccc(-c2nc3cnc(Nc4cccc(OC)c4)nc3n(CCC#N)c2=O)cc1", "activity change, negative = inhibition": "-19.2% (inactive)"}
{"chemSmiles": "Cc1cccc(CNc2cc(-c3ccccc3Cl)ncn2)c1", "activity change, negative = inhibition": "-3.92% (inactive)"}
{"chemSmiles": "CS(=O)(=O)Nc1cccc(-c2cc(Nc3ccccc3)ncn2)c1", "activity change, negative = inhibition": "10.9% (inactive)"}
{"chemSmiles": "CN(C)C(=O)c1ccc(-c2nccc(Nc3ccc(F)cc3)n2)cc1", "activity change, negative = inhibition": "-12.1% (inactive)"}
{"chemSmiles": "c1ccc(CNc2nc(-c3ccoc3)nc3ccccc23)cc1", "activity change, negative = inhibition": "-7.24% (inactive)"}
{"chemSmiles": "COc1ccc(CNc2ccnc(-c3c(C)noc3C)n2)c(OC)c1", "activity change, negative = inhibition": "8.32% (inactive)"}
{"chemSmiles": "O=c1c(CCc2ccccc2)nc2cncnc2n1Cc1ccccc1Cl", "activity change, negative = inhibition": "-6.53% (inactive)"}
{"chemSmiles": "CCNc1ncc2nc(-c3cn(C)c4ccccc34)c(=O)n(C[C@H]3CCCO3)c2n1", "activity change, negative = inhibition": "16.3% (inactive)"}
{"chemSmiles": "Cn1cccc1C(=O)N1CCC[C@@]2(CCN(c3ncccn3)C2)C1", "activity change, negative = inhibition": "-9.56% (inactive)"}
{"chemSmiles": "FC(F)(F)c1ccccc1-c1cncnc1Nc1ccccc1", "activity change, negative = inhibition": "9.21% (inactive)"}
{"chemSmiles": "O=C(c1cnccn1)N1CCC2(CC1)CN(c1cccc(-c3ccccc3)c1)C2", "activity change, negative = inhibition": "-5.73% (inactive)"}
{"chemSmiles": "CC[C@H](NC(C)C)[C@H](O)c1ccc(O)c(O)c1", "activity change, negative = inhibition": "-6.46% [at 17.2 µM] (inactive)"}
{"chemSmiles": "N#Cc1cccc(NC(=O)N2CC3(CCN(C(=O)c4cccc(F)c4)CC3)C2)c1", "activity change, negative = inhibition": "8.8% (inactive)"}
{"chemSmiles": "N#Cc1cccc(NC(=O)N2CCCC3(CCN(C(=O)c4cnccn4)CC3)C2)c1", "activity change, negative = inhibition": "-9.23% (inactive)"}
{"chemSmiles": "CN1CCN(c2ccnc(-c3cccnc3)n2)CC1", "activity change, negative = inhibition": "0.489% (inactive)"}
{"chemSmiles": "O=C(c1csnn1)N1CCC2(CCCN(c3cccc(-c4ccccc4)c3)C2)CC1", "activity change, negative = inhibition": "-13.8% (inactive)"}
{"chemSmiles": "O=c1cnc2cnc(Oc3ccccc3)nc2n1C1CC1", "activity change, negative = inhibition": "-5.78% (inactive)"}
{"chemSmiles": "CN(C)C(=O)c1ccc(-c2ccc3ncnc(N(C)Cc4ccco4)c3c2)cc1", "activity change, negative = inhibition": "8.43% (inactive)"}
{"chemSmiles": "COCC(=O)N1CCC2(CCCN(c3ccccc3)C2)CC1", "activity change, negative = inhibition": "-7.94% (inactive)"}
{"chemSmiles": "COc1cccc(Cn2c(=O)c(-c3ccc(F)c(F)c3)nc3cncnc32)c1", "activity change, negative = inhibition": "-0.724% (inactive)"}
{"chemSmiles": "N#Cc1cccc(-c2nc3cnc(Nc4ccccc4)nc3n(C[C@H]3CCCO3)c2=O)c1", "activity change, negative = inhibition": "-9.05% (inactive)"}
{"chemSmiles": "CC(C)NC(=O)N1CC[C@@]2(CCCN(S(=O)(=O)c3ccccc3)C2)C1", "activity change, negative = inhibition": "18.4% (inactive)"}
{"chemSmiles": "COc1ncc2nc(-c3cn(C)c4ccccc34)c(=O)n(C)c2n1", "activity change, negative = inhibition": "11.4% (inactive)"}
{"chemSmiles": "CN(C)Cc1ccccc1-c1cc(N(C)C)ncn1", "activity change, negative = inhibition": "-11.7% (inactive)"}
{"chemSmiles": "COc1ccccc1CCn1c(=O)c(-c2cn(C)c3ccccc23)nc2cncnc21", "activity change, negative = inhibition": "19% (inactive)"}
{"chemSmiles": "CNc1nc(-c2ccccc2C)nc2ccccc12", "activity change, negative = inhibition": "3.1% (inactive)"}
{"chemSmiles": "O=S(=O)(c1ccccc1)N1CCC[C@@]2(CCN(c3ncccn3)C2)C1", "activity change, negative = inhibition": "27.1% (inactive)"}
{"chemSmiles": "Cc1cccc(CNc2ccnc(-c3cccc(NS(C)(=O)=O)c3)n2)c1", "activity change, negative = inhibition": "9.66% (inactive)"}
{"chemSmiles": "CCNc1ncc2nc(-c3cccs3)c(=O)n(C[C@H]3CCCO3)c2n1", "activity change, negative = inhibition": "18.7% (inactive)"}
{"chemSmiles": "COc1ccc(C(=O)N2CCC3(CC2)CCN(c2cccc(-c4ccccc4)c2)CC3)cc1", "activity change, negative = inhibition": "-6.4% (inactive)"}
{"chemSmiles": "O=S(=O)(c1ccccc1)N1CCC2(CCCN(c3ccccc3)C2)CC1", "activity change, negative = inhibition": "-15.8% (inactive)"}
{"chemSmiles": "COCCn1c(=O)cnc2cnc(Oc3cccc(Cl)c3)nc21", "activity change, negative = inhibition": "2.09% (inactive)"}
{"chemSmiles": "N#Cc1cccc(-c2cc(-n3ccnc3)ncn2)c1", "activity change, negative = inhibition": "4.55% (inactive)"}
{"chemSmiles": "Cn1cccc1C(=O)N1CCC2(CC1)CN(Cc1cc(C(F)(F)F)cc(C(F)(F)F)c1)C2", "activity change, negative = inhibition": "15.4% (inactive)"}
{"chemSmiles": "CC(=O)N1CCC2(CCCN(c3cccc(-c4ccccc4)c3)C2)CC1", "activity change, negative = inhibition": "-0.641% (inactive)"}
{"chemSmiles": "COc1ccc(Oc2ncc3nc(-c4cccs4)c(=O)n(Cc4cccs4)c3n2)cc1", "activity change, negative = inhibition": "-3.5% (inactive)"}
{"chemSmiles": "N#Cc1cccc(-c2ccc3ncnc(NC4CCNCC4)c3c2)c1", "activity change, negative = inhibition": "3.08% (inactive)"}
{"chemSmiles": "COc1ccc(CNc2ccnc(-c3ccccc3CN(C)C)n2)c(OC)c1", "activity change, negative = inhibition": "-25.3% (inactive)"}
{"chemSmiles": "Cn1c(=O)c(-c2cc(F)cc(F)c2)nc2cnc(Oc3cccc(Cl)c3)nc21", "activity change, negative = inhibition": "-4.07% (inactive)"}
{"chemSmiles": "COCCn1c(=O)c(-c2cc(F)cc(F)c2)nc2cnc(N(C)C)nc21", "activity change, negative = inhibition": "-6.48% (inactive)"}
{"chemSmiles": "N#CCCn1c(=O)cnc2cnc(Nc3ccccc3)nc21", "activity change, negative = inhibition": "-3.19% (inactive)"}
{"chemSmiles": "CN(Cc1ccco1)c1nc(-c2ccccc2Cl)nc2ccccc12", "activity change, negative = inhibition": "-23.4% (inactive)"}
{"chemSmiles": "COc1ccc2[nH]cc(CCNc3cc(-c4ccccc4Cl)ncn3)c2c1", "activity change, negative = inhibition": "9.26% (inactive)"}
{"chemSmiles": "O=C(Nc1cccc(F)c1)N1CCCC2(CCN(C(=O)c3csnn3)CC2)C1", "activity change, negative = inhibition": "-19.5% (inactive)"}
